# experimental.system: Heat shock protein HSP 90-beta (Homo sapiens)
# Sequence (P08238 whole entry): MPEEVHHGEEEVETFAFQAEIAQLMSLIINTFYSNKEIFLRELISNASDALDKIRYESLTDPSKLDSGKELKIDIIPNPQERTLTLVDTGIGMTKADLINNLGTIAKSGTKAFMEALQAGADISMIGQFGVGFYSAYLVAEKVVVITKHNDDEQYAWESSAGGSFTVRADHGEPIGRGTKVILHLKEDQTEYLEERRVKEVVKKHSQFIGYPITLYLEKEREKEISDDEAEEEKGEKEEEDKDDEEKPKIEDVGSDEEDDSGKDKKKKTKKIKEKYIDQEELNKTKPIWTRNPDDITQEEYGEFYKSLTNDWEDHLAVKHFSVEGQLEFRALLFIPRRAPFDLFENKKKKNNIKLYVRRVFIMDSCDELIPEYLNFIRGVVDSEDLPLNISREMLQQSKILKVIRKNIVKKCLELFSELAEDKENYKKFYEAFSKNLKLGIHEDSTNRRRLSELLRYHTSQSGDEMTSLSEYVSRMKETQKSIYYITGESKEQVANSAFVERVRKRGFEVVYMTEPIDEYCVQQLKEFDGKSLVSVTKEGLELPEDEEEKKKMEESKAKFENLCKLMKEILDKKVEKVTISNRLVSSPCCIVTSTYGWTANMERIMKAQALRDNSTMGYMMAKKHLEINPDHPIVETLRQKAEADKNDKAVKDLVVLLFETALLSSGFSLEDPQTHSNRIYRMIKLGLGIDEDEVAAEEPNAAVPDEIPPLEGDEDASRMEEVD
# assay.remarks: Binding affinity to human Hsp90 by surface plasmon resonance analysis
parameter: Kd

c1ccc(-c2ccc(Cn3cc(CCCCc4cn(Cc5ccc(-c6ccccc6)cc5)nn4)nn3)cc2)cc1 Not Active
c1ccc2cc(Cn3cc(-c4ccc(-c5cn(Cc6ccc7ccccc7c6)nn5)cc4)nn3)ccc2c1 Not Active
O=C(c1ccccc1)c1ccc(Cn2cc(CCCCc3cn(Cc4ccc(C(=O)c5ccccc5)cc4)nn3)nn2)cc1 Not Active

* * *

# experimental.system: Heat shock protein HSP 90-beta (Homo sapiens)
# assay.remarks: Binding affinity to human Hsp90 by surface plasmon resonance analysis
# measurement.context: read-out: Kd
parameter: log10(Kd) (log10 of the value in µM)
For clarity, the numbers are log10 values of Kd expressed in µM.

Query :: Dear colleague, I am looking for the recorded log10(Kd) of the following compound: "c1ccc(-c2ccc(Cn3cc(COCc4cn(Cc5ccc(-c6ccccc6)cc5)nn4)nn3)cc2)cc1"
Result :: -0.63

Query :: Same again, this time with "c1ccc2cc(Cn3cc(CCCCc4cn(Cc5ccc6ccccc6c5)nn4)nn3)ccc2c1"
Result :: -1.08

Query :: Same again, this time with "c1ccc(-c2ccc(Cn3cc(CN(Cc4cn(Cc5ccc(-c6ccccc6)cc5)nn4)Cc4cn(Cc5ccc(-c6ccccc6)cc5)nn4)nn3)cc2)cc1"
Result :: -1.14

Query :: Same again, this time with "O=C1c2ccccc2C(=O)c2cc(Cn3cc(CN(Cc4cn(Cc5ccc6c(c5)C(=O)c5ccccc5C6=O)nn4)Cc4cn(Cc5ccc6c(c5)C(=O)c5ccccc5C6=O)nn4)nn3)ccc21"
Result :: -0.97

Query :: Same again, this time with "O=C1c2ccccc2C(=O)N1CCCn1cc(CN(Cc2cn(CCCN3C(=O)c4ccccc4C3=O)nn2)Cc2cn(CCCN3C(=O)c4ccccc4C3=O)nn2)nn1"
Result :: -1.05

Query :: Same again, this time with "O=C(c1ccccc1)c1ccc(Cn2cc(COCc3cn(Cc4ccc(C(=O)c5ccccc5)cc4)nn3)nn2)cc1"
Result :: -2.44

Query :: Same again, this time with "O=C(c1ccccc1)c1ccc(Cn2cc(CN(Cc3cn(Cc4ccc(C(=O)c5ccccc5)cc4)nn3)Cc3cn(Cc4ccc(C(=O)c5ccccc5)cc4)nn3)nn2)cc1"
Result :: -0.82

Query :: Same again, this time with "O=C1c2ccccc2C(=O)N1CCCn1cc(COCc2cn(CCCN3C(=O)c4ccccc4C3=O)nn2)nn1"
Result :: -2.46

Query :: Same again, this time with "c1ccc2c(Cn3cc(COCc4cn(Cc5cccc6ccccc56)nn4)nn3)cccc2c1"
Result :: -1.99

Query :: Same again, this time with "c1ccc2c(Cn3cc(CN(Cc4cn(Cc5cccc6ccccc56)nn4)Cc4cn(Cc5cccc6ccccc56)nn4)nn3)cccc2c1"
Result :: -0.70

Query :: Same again, this time with "c1ccc2c(Cn3cc(CCCCc4cn(Cc5cccc6ccccc56)nn4)nn3)cccc2c1"
Result :: -0.72

Query :: Same again, this time with "c1ccc2cc(Cn3cc(CN(Cc4cn(Cc5ccc6ccccc6c5)nn4)Cc4cn(Cc5ccc6ccccc6c5)nn4)nn3)ccc2c1"
Result :: -1.26

Query :: Same again, this time with "O=C1c2ccccc2C(=O)c2cc(Cn3cc(COCc4cn(Cc5ccc6c(c5)C(=O)c5ccccc5C6=O)nn4)nn3)ccc21"
Result :: -2.55

* * *

# experimental.system: UniProt:P08238
parameter: IC50

Query :: For UniProt:P08238, provide IC50 of "O=C1c2ccccc2C(=O)c2cc(Cn3cc(COCc4cn(Cc5ccc6c(c5)C(=O)c5ccccc5C6=O)nn4)nn3)ccc21" please.
Result :: 7 µM

Query :: Same again, this time with "c1ccc2cc(Cn3cc(CCCCc4cn(Cc5ccc6ccccc6c5)nn4)nn3)ccc2c1"
Result :: 52 µM

Query :: Same again, this time with "O=C1c2ccccc2C(=O)N1CCCn1cc(COCc2cn(CCCN3C(=O)c4ccccc4C3=O)nn2)nn1"
Result :: 7 µM

Reference source for all entries: ChEMBL document CHEMBL2412974
